- target.under.test: human DGAT2 (Homo sapiens)
- Construct: FLAG (DYKDDDDK); membrane fraction used
- Sequence (Q96PD7 1-388): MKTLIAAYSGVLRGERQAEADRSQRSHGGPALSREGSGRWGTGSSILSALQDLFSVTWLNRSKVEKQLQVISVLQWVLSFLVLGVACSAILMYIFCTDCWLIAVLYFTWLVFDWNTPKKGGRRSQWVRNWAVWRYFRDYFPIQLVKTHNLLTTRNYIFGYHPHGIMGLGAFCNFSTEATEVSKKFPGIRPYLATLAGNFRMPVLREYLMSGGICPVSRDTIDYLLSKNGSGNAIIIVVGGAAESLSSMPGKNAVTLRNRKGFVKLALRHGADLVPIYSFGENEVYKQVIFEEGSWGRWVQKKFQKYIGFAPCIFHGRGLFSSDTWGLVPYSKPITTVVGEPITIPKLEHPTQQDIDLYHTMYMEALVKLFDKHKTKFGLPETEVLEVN
- experiment.notes: DGAT2 enzyme activity inhibition, Phospholipid FlashPlate SPA
- run.parameters: recombinant human DGAT2 membrane protein from Sf-21 cells; inhibition of [14C]-TG production; 37° C.
pIC50: −log10 of the molar value.
Quick rule: pIC50 of at least 7 means Condition met, below that means Condition not met.

Recorded results for 2 molecules are shown here.
* CCOc1ccccc1O[C@@H]1CCCN(c2cncc(Nc3nccc(N4CCC(C(=O)O)C4)n3)n2)C1 (stereo partly shown) [Example 118] | Condition not met
* CCOc1ccccc1O[C@@H]1CCCN(c2cncc(Nc3nc(-c4ccccc4)cs3)n2)C1 [Example 4] | Condition not met

Please indicate if the recorded pIC50 for CCOc1ccccc1O[C@@H]1CCCN(c2cccc(Nc3cccc(-c4cccc(CC(C)(C)C(=O)O)c4)n3)n2)C1 [Example 65] meets or exceeds 7. Condition not met

Is reported pIC50 greater than or equal to 7 here: CCOc1ccccc1O[C@@H]1CCCN(c2cncc(Nc3nccc(N4CCC(C(C)(C)C(=O)O)CC4)n3)n2)C1 [Example 126] Condition not met

Please check the record CCOc1cccnc1O[C@@H]1CCCN(c2cncc(Nc3nccc(-c4ccc(C(C)(C)C(=O)O)cc4)n3)n2)C1 [Example 144] and state if its pIC50 is at or above 7. Condition not met

Tell me whether pIC50 is at least 7 here: CCOc1ccccc1O[C@@H]1CCCN(c2cncc(Nc3nc4cc(Cl)ccc4o3)n2)C1 [Example 11] Condition met
